Source listed as patent US20110136766A1.

Test system: Colo205
Experiment: CellTiter-Glo cell viability assay, Colo205
Type: cell-based
Settings: Homo sapiens, COLO 205; Colorectal cancer; 72 hrs; 50% growth inhibition relative to control; read-out: Colo205 IC50
Method: The CellTiter-Glo® Luminescent Cell Viability Assay is a homogeneous method of determining the number of viable cells in culture based on quantitation of the ATP present, which signals the presence of metabolically active cells. […] 96 Well cell culture plates were seeded with 10^3 mammalian cells (Colo205, HL-60, SW620, HCT116, MCF-7 and MV-411) in 100 μl culture medium. […] Control wells were prepared on a plate containing medium only to obtain a value for background luminescence. […]
Readings of IC50 for the listed compounds
Respond with the bare value in nM.

Example entries and their recorded answers appear below.
>>> result_number("O=C(Cc1cc(Nc2ncnc3cc(-c4ccc(S(=O)(=O)N5CC[C@H](F)C5)cc4)ccc23)n[nH]1)Nc1cccc(F)c1")
3.86
>>> result_number("O=C(Cc1cc(Nc2ncnc3cc(-c4ccc(C(=O)N5CCN(CCO)CC5)cc4)ccc23)n[nH]1)Nc1cccc(F)c1F")
3.07
>>> result_number("O=C(Cc1cc(Nc2ncnc3cc(-c4ccc(C(=O)N5CCN(CCF)CC5)cc4)ccc23)n[nH]1)Nc1cccc(F)c1")
7.82
>>> result_number("O=C(Cc1cc(Nc2ncnc3cc(-c4ccc(C(=O)N5CCNCC5)cc4)ccc23)n[nH]1)Nc1cccc(F)c1")
2.11
>>> result_number("CC(=O)O[C@H]1C(=O)[C@@]2(C)[C@H]([C@H](OC(=O)c3ccccc3)[C@]3(O)C[C@H](OC(=O)[C@H](O)[C@@H](NC(=O)c4ccccc4)c4ccccc4)C(C)=C1C3(C)C)[C@]1(OC(C)=O)CO[C@@H]1C[C@@H]2O [Taxol, reference compound]")
2.54

*Q* Annotate the compound O=C(Cc1cc(Nc2ncnc3cc(-c4ccc(C(=O)N5CCN(CCO)CC5)cc4)ccc23)n[nH]1)Nc1cccc(F)c1 with its measured IC50.
*A* 1.82

*Q* Identify measured IC50 corresponding to O=C(Cc1cc(Nc2ncnc3cc(-c4ccc(C(=O)N5CCN(C6CC6)CC5)cc4)ccc23)n[nH]1)Nc1cccc(F)c1
*A* 5.35

###

Target: full-length human Aurora A (Homo sapiens, UniProt O14965)
Sequence (O14965 1-403): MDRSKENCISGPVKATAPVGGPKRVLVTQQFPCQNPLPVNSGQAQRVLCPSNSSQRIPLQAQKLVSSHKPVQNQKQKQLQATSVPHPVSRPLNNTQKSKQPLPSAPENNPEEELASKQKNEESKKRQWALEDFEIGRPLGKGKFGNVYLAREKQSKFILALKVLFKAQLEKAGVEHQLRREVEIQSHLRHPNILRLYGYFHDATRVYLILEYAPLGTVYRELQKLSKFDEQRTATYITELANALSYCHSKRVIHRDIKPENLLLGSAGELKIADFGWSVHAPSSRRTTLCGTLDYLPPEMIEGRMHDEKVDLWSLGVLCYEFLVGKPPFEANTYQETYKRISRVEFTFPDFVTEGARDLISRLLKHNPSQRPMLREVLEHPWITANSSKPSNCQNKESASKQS
// values below are reported IC50
Form entry: value (nM) — number only.

>>> result_number("O=C(Cc1cc(Nc2ncnc3cc(-c4ccc(S(=O)(=O)N5CC[C@@H](F)C5)cc4)ccc23)n[nH]1)Nc1cccc(F)c1")
6.29

*Q* Given the compound O=C(Cc1cc(Nc2ncnc3cc(-c4ccc(C(=O)N5CCN(CCO)CC5)cc4)ccc23)n[nH]1)Nc1cc(F)cc(F)c1 , write its reported IC50.
*A* 2.29

*Q* Could you please provide reported IC50 for O=C(Cc1cc(Nc2ncnc3cc(-c4ccc(C(=O)N5CCN(CCF)CC5)cc4)ccc23)n[nH]1)Nc1cccc(F)c1 ? Thanks!
*A* 2.86

*Q* Return value of IC50 for input O=C(Cc1cc(Nc2ncnc3cc(-c4ccc(C(=O)N5CCN(CCOP(=O)(O)O)CC5)cc4)ccc23)n[nH]1)Nc1cccc(F)c1 , no commentary.
*A* 1.91
